- Tested on: MS2 coat protein
- Test: apparent KD of MS2 coat protein; designed switch direction (-1 OFF switch, 1 ON switch): -1; higher = weaker reporter binding
- Assay setup: input ligand: none
Assign criterion met to entries whose apparent KD of MS2 coat protein meets or exceeds 20 nM; assign criterion not met to the rest.

Consider the following illustrative entries.
Prompt: Identify whether the reported apparent KD of MS2 coat protein of the following sequence is 20 nM or greater: GCACGGAGUGUAGGAUAUCUGUGCGAUUAGCUCAGAGAAGGACACAUGAGGAUCACCCAUGUGUUCCACCGAAAGGUUCCGUGC [Eli exng1 - 048] (Eterna round: R96, puzzle: Exclusion NG 1)
Completion: criterion not met

Prompt: Identify whether the reported apparent KD of MS2 coat protein of the following sequence is 20 nM or greater: GUUGUUGCGCAGGAUAUCCAGCGACUUGUCGAAGGAGAAGGGCGCACAUGAGGAUCACCCAUGUGCCUCUGUAA [EX6 B.20] (Eterna round: R97, puzzle: Exclusion 6)
Completion: criterion not met

Prompt: Identify whether the reported apparent KD of MS2 coat protein of the following sequence is 20 nM or greater: ACAUGAGGAUCACCCAUGUCCGGCUGGUCUGUUCCGGCUGUCGAGGAUAUAGUCCGGUGUUCGCGCUAGAAGGCGAGGGCUGGA [Aenatbe mod 48] (Eterna round: R96, puzzle: Exclusion NG 3)
Completion: criterion met

Prompt: Identify whether the reported apparent KD of MS2 coat protein of the following sequence is 20 nM or greater: ACAUGAGGAUCACCCAUGUAAACAUGAUGGCUGAUGUAGAGCUAGGAUAUGAGUGGCUUUCUAUCUCAGAAGGAGCUUGACUGG [Deportation 43 - Jieux - Exclusion NG 3] (Eterna round: R96, puzzle: Exclusion NG 3)
Completion: criterion met

Turning to the following sequence.
Prompt: Identify whether the reported apparent KD of MS2 coat protein of the following sequence is 20 nM or greater: UAAACAUGGAUAUAACAGUACAUGAGGAUCACCCAUGUUAAUAUGAUAGAUUAUAACAAGUUUUUUUGUCGUCUUAA [Tabletop] (Eterna round: R97, puzzle: Sensor, turn-off variant 1)
Completion: criterion met

---

- System: MS2 coat protein
- Test: apparent KD of MS2 coat protein; higher = weaker reporter binding
- Assay setup: Eterna round: R107; input ligand: theophylline 2 mM
Classification scheme (apparent KD of MS2 coat protein): group A (below 30 nM), group B (30 nM to below 80 nM), group C (80 nM or more)

Consider the following illustrative entries.
Prompt: Which bin should I file ACGCUGAUUGAUUACAAUCAGCGAAAAGAUACCAGUGGGUAAUCCCACCCUUGGCAGCUUAAACAAGAGGAUCACCCUUGUGGUA [TheoAS 16 #MS2Right #BothOrNeither #AlternativeMS2] under?
Completion: group C

Prompt: Which bin should I file AUGUCUGAGUCGGCCGCCACUGGGUGUGGGUGAUGCCGGAUGUUGUACAUGAGGAUCACCCAUGUCAGGACCGGGAUUCCCACGA [Receve] under?
Completion: group A

Prompt: Which bin should I file AACAUACAAUUUUAGGUGGAUAUAAGGCGGCGAGGACCGGUACGGCCGCCACUCGCGUACAUGAGGAUCACCCAUGUCUGAAACU [Same State - Tryptophan A (Freestyle 5)] under?
Completion: group A

Prompt: Which bin should I file GGGCCCGGGCGCGAGCCCGGGCCCAUUGAUACCAGUGAUAGAGAGCGCCCUUGGCAGCGAAUCCUAACAUGAGGAUCACCCAUGU [5.K] under?
Completion: group C

Prompt: Which bin should I file GGUUACUCUACGGCCGCCACUGAUUAUUUAUAGUCCUGUACAUAAACAUGAGGAUCACCCAUGUACAGGACCGGGUAGUGUAACC [Tryptophan B 12] under?
Completion: group B

Next:
Prompt: Which bin should I file `UGUAUGUGAUCUGAUACCAGUCCAACUGGUAAAACUUGAGGAUCACCCAGGUAAAAUUGGGACCCUUGGCAGCAGAUCGCAUACU` under?
Completion: group C

Prompt: Which bin should I file `GGGUACAUCGCGGCCGCCACUGAUGUAAAUACAUGAGGAUCACCCAUGUCGAUGGAGACAUCGGCCAGGACCGGGUGAUGUACCG` under?
Completion: group A

Prompt: Which bin should I file GCUAGGUCAUCGGCCGCCACUAACGAUGGCUCCAACAUGAGGAUCACCCAUGUGCCACAUGCGCAUAGGACCGGGAUGACCUAGC [SSTB NP+V+V2 #3] under?
Completion: group A

Prompt: Which bin should I file UAAACUACACAUGAGGAUCACCCAUGUGGCCGAGGACCGGUACGGCCGCCACUCGUGUGUUAAUAAAAGAACUGCAAGAUUCUUU [Issoraor] under?
Completion: group C

Prompt: Which bin should I file GCACCAGGUACGGAUACCAGCUGCCCGAGAUACAUGAGGAUCACCCAUGUGACCUGAUUUAGCCCUUGGCAGCUGUACCUGGUGC [SSThB NP+V+V2 #1] under?
Completion: group B

Prompt: Which bin should I file GGGCCCGGGCGCGAGCCCGGGCCCAUUGAUACCAGUGAAGAAGAGCGCCCUUGGCAGCGAAUCCUAACAUGAGGAUCACCCAUGU [5.P] under?
Completion: group B

Prompt: Which bin should I file `UGUAUGGACUGAAGGAGCGGAAAAUAAACCUGAGGAUCACCCGGGUAAUAGGCGAAAGCCAUCCAGGUAGGUCGCAGUCCAUACU` under?
Completion: group C

Prompt: Which bin should I file `UGUAUGGACUGAAGGAGCGGGUAAAUAACCUGAGGAUCACCCAGGUAAAAGGCGAAAGCCACCCAGGUAGGUCGCAGUCCAUACU` under?
Completion: group A

---

Assign apparent KD of MS2 coat protein to each entry below.
- Tested on: MS2 coat protein
- Test: apparent KD of MS2 coat protein; designed switch direction (-1 OFF switch, 1 ON switch): -1; higher = weaker reporter binding
- Assay setup: input ligand: FMN 200 uM
One number for each entry, in nM.

apparent KD of MS2 coat protein reported for this sequence GUCAGCUCGUGAGGAUAUACAUCACUGCUUCGGCAGUGUAUUAAGAUCACAUGAGGAUCACCCAUGUAGAAGGCACGAGCUGAU [ENG2/2-A2] (Eterna round: R96, puzzle: Exclusion NG 2) : 1020

Count: 8. Required value per item: apparent KD of MS2 coat protein.
1. AAUGACUGAGGAUAUUGUACUGCUGACAUGAGGAUCACCCAUGUAUGCUAACUCGGCCGUCGAGAAGGCAGUCAUG [BotMod 24 - Jieux - Exclusion 5] (Eterna round: R97, puzzle: Exclusion 5)
2. AAUUCGCAAGCGAGAUCCCACAUGAGGAUCACCCAUGUGCUCGUCUUAUAAGGUACUGUGACAAAAGUCACGGUACC [Mat - Sensor, turn-off var - Eli Mod - D84] (Eterna round: R97, puzzle: Sensor, turn-off variant 1)
3. AUAAGUAUGAAGGAUAUGCGCGAGCCAGCUUGGGCAGAAGGUUAAACAUGAGGAUCACCCAUGUGGAAAUCCGA [Eternabot (Original) Solution 34] (Eterna round: R97, puzzle: Exclusion 6)
4. AUUUUGAAUGUAAGGAUAUCAAUACGAGGGCGUGAUGAGAAGGUACAUGAGGAUCACCCAUGUGGCGAGCUCAC [BmEX4 B.24] (Eterna round: R97, puzzle: Brourd's mod of Exclusion 4)
5. AGUGUGGAGACAGGAUAUGAGAAUAGAUAGAAAUCAGAAGGGUCACAUGAGGAUCACCCAUGUAAAGUCUUGAGGAUGAGUGAU [Prohibition 2 - Jieux - Exclusion NG 1] (Eterna round: R96, puzzle: Exclusion NG 1)
6. AAGUACCGUCACGAUAGUGAUGGUACAACAAGCAUGUAAACAUGAGGAUCACCCAUGUCCUCAAUUGCUCGUCUUAU [Sensor 3 - 68] (Eterna round: R96, puzzle: Sensor v3, turn-off variant 2)
7. GGCAUGUAAGGAUAUGCCACGCAGGCCUUUGGCCUGCGUAAGCAGAAGGUACAUGAGGAUCACCCAUGUGAUAA [jl-ex4-4.57 ViennaUCT mod] (Eterna round: R97, puzzle: Exclusion 4)
8. UUACGGCGGAGAGGAUAUCCGAAAGGAAGUGUAGGAGAAGGCUCCAGUUGUACAUGAGGAUCACCCAUGUGAUCCUUUCCGAAA [PowerStrip EXNG 1.25] (Eterna round: R96, puzzle: Exclusion NG 1)

Completion:
18.5
14.3
32.9
33.5
263
956
129
2040

---

- Tested on: MS2 coat protein
- Test: apparent KD of MS2 coat protein; designed switch direction (-1 OFF switch, 1 ON switch): -1; higher = weaker reporter binding
- Assay setup: input ligand: FMN 200 uM
Property label: apparent KD of MS2 coat protein

Record for AUUGUGUGAGGAUAUUAGUAGUAAAUAAAUAAAAUUAUUACUGAGAAGGCACAUGAGGAUCACCCAUGUUCCUU [Salish 062 v5] (Eterna round: R97, puzzle: Exclusion 4) under target or system MS2 coat protein: apparent KD of MS2 coat protein reported as 131 nM

Count: 3. Required value per item: apparent KD of MS2 coat protein.
1. AACCCUGUAGGAUAUCAGGGACUACACAUGAGGAUCACCCAUGUGACCUCAACCUAGUGUUGAGAAGGACAGGUAU [Eternabot (Original) Solution 22] (Eterna round: R97, puzzle: Exclusion 5)
2. GUAGAGUCAGGAUAUACGAAUAGAUCGAUAGAUCAAUCCAUACAUGAGGAUCACCCAUGUAGAAGGGACUCUAC [Mat - Exclusion 2 - Eli Mod - D15] (Eterna round: R97, puzzle: Exclusion 2)
3. CCAAGCUUAUUCAUUAACAACAUGAGGAUCACCCAUGUAUAGGCAAUUAUGUUUGGGCUCUUUAGUGCUCGUCUUAU [Sensor-V1 #23] (Eterna round: R97, puzzle: Sensor, turn-off variant 1)

Completion:
50.9 nM
26.2 nM
16.1 nM
